Values were extracted from ChEMBL document CHEMBL4308841.

This section presents compounds with their documented growth at 100 µM values.
- Test system: HCC 2998
- measurement.notes: Growth inhibition of human HCC2998 cells assessed as cell growth at 100 uM incubated for 48 hrs by sulforhodamine B assay relative to control
- Type: functional
- conditions: HCC 2998, 48 h, read-out: Activity
Respond with the bare value in %.

O=C(Nc1cccc(-n2cc(-c3ccncc3)c(-c3cc(O)cc(Cl)c3)n2)c1)c1cc(C(F)(F)F)cc(C(F)(F)F)c1	-34
O=C(Nc1cccc(-n2cc(-c3ccncc3)c(-c3cc(O)cc(Cl)c3)n2)c1)Nc1ccc(Cl)c(Cl)c1	-55
O=C(Nc1cccc(-n2cc(-c3ccncc3)c(-c3cc(O)cc(Cl)c3)n2)c1)Nc1ccc(Cl)c(C(F)(F)F)c1	-88

Asked: Query (compound): COc1cc(Cl)cc(-c2nn(-c3cccc(NC(=O)c4cccc(C(F)(F)F)c4)c3)cc2-c2ccncc2)c1 ; field requested: growth at 100 µM
Given back: 15

====

- System: SK-MEL-2
- measurement.notes: Growth inhibition of human SK-MEL-2 cells incubated for 48 hrs by sulforhodamine B assay
- Assay type: functional, cell-based
- conditions: SK-MEL-2, 48 h
property.name: IC50 (µM)
Numbers only here, please. The scale is µM.

Asked: GET /values?readout=IC50&item= COc1cc(Cl)cc(-c2nn(-c3cccc(NC(=O)Nc4cc(C(F)(F)F)cc(C(F)(F)F)c4)c3)cc2-c2ccncc2)c1
Given back: 0.66

====

- Tested on: SF-268
- measurement.notes: Growth inhibition of human SF268 cells assessed as cell growth at 10 uM incubated for 48 hrs by sulforhodamine B assay relative to control
- Assay type: functional
- conditions: SF-268, 48 h, read-out: Activity
property.name: growth at 10 µM (%)
Expressed in %, but write only the number.

Please review the following examples before continuing.
O=C(Nc1cccc(-n2cc(-c3ccncc3)c(-c3cc(O)cc(Cl)c3)n2)c1)c1ccc(N2CCOCC2)c(C(F)(F)F)c1	52.7
COc1cc(Cl)cc(-c2nn(-c3cccc(NC(=O)Nc4ccc(Cl)c(C(F)(F)F)c4)c3)cc2-c2ccncc2)c1	22.9
O=C(Nc1cccc(-n2cc(-c3ccncc3)c(-c3cc(O)cc(Cl)c3)n2)c1)Nc1ccc(Cl)c(Cl)c1	16.2
COc1cc(Cl)cc(-c2nn(-c3cccc(NC(=O)c4cc(C(F)(F)F)cc(C(F)(F)F)c4)c3)cc2-c2ccncc2)c1	89.2

Asked: Consider the compound shown here: O=C(Nc1cccc(-n2cc(-c3ccncc3)c(-c3cc(O)cc(Cl)c3)n2)c1)Nc1ccc(Cl)c(C(F)(F)F)c1 What is its recorded growth at 10 µM?
Given back: 42.1

Asked: Consider the compound shown here: COc1cc(Cl)cc(-c2nn(-c3cccc(NC(=O)Nc4ccc(Cl)c(Cl)c4)c3)cc2-c2ccncc2)c1 What is its recorded growth at 10 µM?
Given back: 25.3

====

- Tested on: K562
- measurement.notes: Growth inhibition of human K562 cells assessed as cell growth at 0.1 uM incubated for 48 hrs by sulforhodamine B assay relative to control
- Format: functional
- conditions: K562, 48 h, read-out: Activity
property.name: growth at 0.1 µM (%)
Numeric answer only, unit % assumed.

Example results:
COc1cc(Cl)cc(-c2nn(-c3cccc(NC(=O)Nc4cccc(C(F)(F)F)c4)c3)cc2-c2ccncc2)c1	94
COc1cc(Cl)cc(-c2nn(-c3cccc(NC(=O)Nc4ccc(Cl)c(C(F)(F)F)c4)c3)cc2-c2ccncc2)c1	91
O=C(Nc1cccc(-n2cc(-c3ccncc3)c(-c3cc(O)cc(Cl)c3)n2)c1)c1cc(C(F)(F)F)cc(C(F)(F)F)c1	89
O=C(Nc1cccc(-n2cc(-c3ccncc3)c(-c3cc(O)cc(Cl)c3)n2)c1)Nc1ccc(Cl)c(C(F)(F)F)c1	94
COc1cc(Cl)cc(-c2nn(-c3cccc(NC(=O)Nc4cc(C(F)(F)F)cc(C(F)(F)F)c4)c3)cc2-c2ccncc2)c1	91

Okay, now this compound:
Asked: Field request: growth at 0.1 µM | item: O=C(Nc1cccc(-n2cc(-c3ccncc3)c(-c3cc(O)cc(Cl)c3)n2)c1)Nc1ccc(Cl)c(Cl)c1
Given back: 100
